Ref: PubChem BioAssay (NCATS)

tested on: TAB113; assay: qHTS profiling for inhibitors of Plasmodium falciparum proliferation (AID 504749); also: nearly all actives have a fitted effect of over 60% in size; conditions: P. falciparum in erythrocytes, SYBR Green DNA, 72 h; series mostly up to 28.7 µM
Records with an inconclusive call do not appear. The source made the active and inactive calls. Calls follow the shape of the dose curve; as a rule, active = well fitted inhibition curve with a large enough effect; inconclusive = small, poorly fitted or top-dose-only effect; inactive = flat fitted curve, though single readings scatter.
Parameter call: string, one of Yes = active, No = inactive

What did the test return for CCCCCCCCCCCCCCCCCCCCCCO ?
No

What did this assay record as the result for Cc1nc(Nc2ncc(C(=O)Nc3c(C)cccc3Cl)s2)cc(N2CCN(CCO)CC2)n1 ?
No

Please let me know the test result on file for CCCCCCCCOc1ccccc1C(=O)Nc1ccc(C(=O)OCC[N+](C)(CC)CC)cc1 .
Yes

Tell me the recorded outcome of this test for CN1C(C(=O)Nc2ccccn2)=C(O)c2sccc2S1(=O)=O .
No

Answer briefly: the call reported for Cc1cc2c(s1)Nc1ccccc1N=C2N1CCN(C)CC1 in this assay.
No

Recorded test call requested for CCC(C)(Oc1ccc(C2(c3ccc(OC(C)(CC)C(=O)O)cc3)CCCCC2)cc1)C(=O)O (centres undefined)
No

Give the logged outcome of this assay for the following compound: Cc1cc2cc3c(C)cc(=O)oc3c(C)c2o1
No

What was the test verdict on CNC[C@H](O)c1ccc(O)c(O)c1 ?
No

For CC(S)C(=O)NCC(=O)O (centres undefined) , which call appears in the assay record?
No

How did this test come out for Cc1ccc(NC(=O)c2ccc(CN3CCN(C)CC3)cc2)cc1Nc1nccc(-c2cccnc2)n1 ?
Yes

# fetch the recorded call for CCc1nc(N)nc(N)c1-c1ccc(Cl)cc1 here
No

Tell me the assay call for O=C(O)c1cccc(-c2noc(-c3ccccc3F)n2)c1 please.
No

Could you kindly confirm the outcome this assay logged for C=CCc1cc(OC)c(O)c(C(=O)NCCO)c1 ?
No

Dear colleague, could you share the recorded outcome for COCCCOc1ccnc(CS(=O)c2nc3ccccc3[nH]2)c1C (centres undefined) when you have a moment?
No

# fetch the recorded call for COC(=O)C1=C(C)NC(C)=C(C(=O)OCCCN2CCC(c3ccccc3)(c3ccccc3)CC2)C1c1cccc([N+](=O)[O-])c1 (centres undefined) here
Yes

In this assay, the call recorded for CCOc1cc(CC(=O)N[C@@H](CC(C)C)c2ccccc2N2CCCCC2)ccc1C(=O)O was what?
No

Record request — test call for CCN(CCO)CCCC(C)Nc1ccnc2cc(Cl)ccc12 (centres undefined)
No

What did the test return for COc1ccc2cc([C@H](C)C(=O)O)ccc2c1 ?
No
